System: 786-0 renal
Test: NCI tumour cell line growth inhibition, 48 h; in the data active = GI50 below about 0.43 µM; inactive = the rest
Just give me one of these, please: YES (active), NO (inactive)

Worked examples, 6 molecules total:
molecule	classification
C#Cc1cccc(Nc2nc3cc([N+](=O)[O-])ccc3nc2Nc2ccc(O)cc2)c1	NO
COc1cc(-c2nc3sccn3c2-c2ccnc(NCCNS(=O)(=O)c3ccc(F)cc3)n2)ccc1F	NO
O=C1OCC2=C1C(c1cccc(Br)c1)c1cc3c(cc1N2CCO)OCCO3 (configuration not stated)	YES
Cc1cc(Nc2ccc(C)c(Cl)c2)n2nc(C(F)(F)F)nc2n1	NO
CC(C)(C)[Si](C)(C)OC1[C@@H](O[Si](C)(C)C(C)(C)C)[C@@H](CNC(=O)NC(=O)C(F)(F)F)O[C@H]1n1cnc2c(NC(=O)Nc3ccccc3)ncnc21 (some centres not stated)	NO
CC[C@@H](c1ccc(O)c(O)c1)[C@@H](CC)c1ccc(O)c(O)c1	NO

We next turn to a different molecule, shown below.
query: // param item: O=C(Nc1cccc(C(F)(F)F)c1)Nc1cccc(C(F)(F)F)c1 ; yields the recorded call
result: NO

---

Test system: SW-620 colon
Assay: NCI tumour cell line growth inhibition, 48 h; in the data active means GI50 below about 0.43 µM; inactive means the rest
Just give me one of these, please: active, inactive

Worked examples, 3 compounds total:
compound	classification
C/C=C/[C@@H]1O[C@@H]2COC(=O)C2=C[C@@H]1O	inactive
C=C1C[C@H](O)[C@H](Br)C(C)(C)[C@@]12CCC(C)=C(Cl)C2	inactive
OC(c1cc(C(F)(F)F)nc2c(C(F)(F)F)cccc12)C1CCCCN1 (stereo not given)	inactive

query: // param item: O=C1NC(=NCc2ccccc2)S/C1=C\c1ccc2ncccc2c1 ; yields the recorded call
result: inactive

query: // param item: O=C1c2c(F)c(F)c(F)c(F)c2C(=O)N1c1ccc(F)cc1F ; yields the recorded call
result: inactive

query: // param item: COc1ccccc1NC(=O)c1cc2cc(Br)ccc2cc1O ; yields the recorded call
result: inactive

query: // param item: COCCn1cc(-c2nc(-c3cc4cccnc4[nH]3)cs2)c2cc(OC)ccc21 ; yields the recorded call
result: inactive

query: // param item: CC(=C(c1ccc(OCCN2CCCCC2)cc1)c1ccc(OCCN2CCCCC2)cc1)c1ccc(Cl)cc1 ; yields the recorded call
result: active

query: // param item: CN1CCN(C(=O)COc2ccc(C34CC5CC(CC(C5)C3)C4)cc2)CC1 ; yields the recorded call
result: inactive

query: // param item: NC(=S)N/N=C\c1nccc2c(C(F)(F)F)cccc12 ; yields the recorded call
result: inactive

---

Record form. Attribute: TGI. Fill in for each entry.
Test system: DU-145 prostate
Assay: NCI tumour cell line growth inhibition, 48 h

compound	TGI
O=C1c2sc(-c3ccc(Cl)cc3)cc2-n2cccc21	> 100 µM

List the reported TGI of each compound below.
1. C#Cc1cccc(Nc2nc3cc([N+](=O)[O-])ccc3nc2Nc2ccc(O)cc2)c1
2. O=C1c2cc3c(cc2CC12Cc1ccc4c(c1C2=O)CCC4)CCCC3 (stereo not drawn)

result:
["3.77 µM", "> 100 µM"]

---

Test system: M14 melanoma
Assay: NCI tumour cell line growth inhibition, 48 h
measure: GI50

Sample records with GI50:
compound	GI50
O=C(NC1CCCCC1)NS(=O)(=O)c1ccc(N2N=C3c4ccccc4CC3C2c2ccc(Cl)cc2)cc1 (stereo not drawn)	10.8 µM
CC(=O)N[C@@H](Cc1ccc(OP(=O)(O)O)cc1)C(=O)N[C@H]1CCC(=O)N2CCC[C@@H](C(=O)Nc3cccc4ccccc34)N2C1=O	> 25 µM

Please find the next compound below.
query: Looking for the measured GI50 of NC(=S)N/N=C1\c2cc(Cl)ccc2-c2c1cc(Cl)cc2[N+](=O)[O-] , can you help?
result: 3.27 µM
